tested on: HeLa; assay: Ability to inhibit cytopathogenicity of herpes simplex type 1 virus (KOS) in HeLa cell culture; assay type: functional, cell-based; conditions: Homo sapiens
Measured Attribute: IC50 (µM)
Write down the numeric answer in µM and omit the unit.

# count of solved cases: 6
{"columns": ["Molecule", "IC50 / µM"],
 "data": [
  ["COC1=C(OCc2ccc([N+](=O)[O-])cc2)C(=O)O/C1=C/Cn1cnc2c(Cl)ncnc21", 7.24],
  ["COC1=C(OC)/C(=C/Cn2cnc3c(Cl)ncnc32)OC1=O", 10.9],
  ["COC1=C(OC)/C(=C/Cn2cnc3c(N)ncnc32)OC1=O", 14.5],
  ["COC1=C(OCc2ccc([N+](=O)[O-])cc2)/C(=C\\Cn2cnc3c(Cl)ncnc32)OC1=O", 9.83],
  ["O=C1O/C(=C/Cn2cnc3c(Cl)ncnc32)C(OCc2ccc([N+](=O)[O-])cc2)=C1OCc1ccc([N+](=O)[O-])cc1", 28.4],
  ["COC1=C(OC)/C(=C/C(n2cnc3c(Cl)ncnc32)P(=O)(OC)OC)OC1=O (centres undefined)", 13.2]
]}

From here, focus on the item given below.
For the molecule Nc1nc2c(ncn2COCCO)c(=O)[nH]1 , give its reported IC50.
0.11

* * *

system: HeLa; experiment: Ability to inhibit cytopathogenicity of thymidine kinase-positive(TK+) strain of Varicella zoster virus (YS) in HeLa cell culture; assay type: functional, cell-based; details: Homo sapiens
pIC50: −log10 of the molar value.
// class 0 strictly below 5 in pIC50; class 1 otherwise

// known answers, use as guide
{"columns": ["Compound", "Label Class"],
 "data": [
  ["COC1=C(OCc2ccc([N+](=O)[O-])cc2)C(=O)O/C1=C/Cn1cnc2c(Cl)ncnc21", "class 1"],
  ["COC1=C(OC)C(O)(CCn2cnc3c(N)ncnc32)OC1=O (centres undefined)", "class 0"],
  ["O=C1O/C(=C/Cn2cnc3c(Cl)ncnc32)C(OCc2ccc([N+](=O)[O-])cc2)=C1OCc1ccc([N+](=O)[O-])cc1", "class 0"]
]}

State whether the measured pIC50 reaches 5, counting equality as reaching it, for COC1=C(OC)C(O)(CCn2cnc3c(Cl)ncnc32)OC1=O (racemic)
class 0

Check the entry COC1=C(OC)/C(=C/Cn2cnc3c(Cl)ncnc32)OC1=O : does pIC50 equal or exceed 5?
class 1

Say whether COC1=C(OCc2ccc([N+](=O)[O-])cc2)/C(=C\Cn2cnc3c(Cl)ncnc32)OC1=O shows pIC50 of 5 or more.
class 1

* * *

assay: Anticancer activity carried out in vitro against human T-lymphocyte CEM/0; format: functional; conditions: CCRF-CEM
Measured Attribute: IC50 (µM)
Give a bare numeral; the unit µM is implied.

Known results for compounds:
{"columns": ["Smi", "IC50, µM"],
 "data": [
  ["COC1=C(OC)/C(=C/Cn2cnc3c(N)ncnc32)OC1=O", 84.5],
  ["COC1=C(OCc2ccc([N+](=O)[O-])cc2)/C(=C\\Cn2cnc3c(Cl)ncnc32)OC1=O", 3.98]
]}

Determine from records and report IC50 for COC1=C(OC)/C(=C/Cn2cnc3c(Cl)ncnc32)OC1=O
4.71

* * *

molecular target: Adenosine deaminase (Bos taurus); assay: Rate of deamination in the presence of calf mucosal adenosine deaminase (ADA)
Sequence (P56658 whole entry): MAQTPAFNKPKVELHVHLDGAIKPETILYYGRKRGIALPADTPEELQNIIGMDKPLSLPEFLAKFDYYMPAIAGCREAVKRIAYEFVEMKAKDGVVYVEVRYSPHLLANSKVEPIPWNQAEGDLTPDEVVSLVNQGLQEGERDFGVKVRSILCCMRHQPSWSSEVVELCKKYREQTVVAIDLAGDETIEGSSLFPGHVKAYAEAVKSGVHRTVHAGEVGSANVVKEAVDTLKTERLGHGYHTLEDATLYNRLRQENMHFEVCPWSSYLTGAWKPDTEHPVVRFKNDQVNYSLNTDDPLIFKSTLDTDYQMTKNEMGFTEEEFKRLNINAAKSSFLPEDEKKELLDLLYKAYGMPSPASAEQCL
Measured Attribute: pKi
// pKi is dimensionless: -log10 of concentration (M)

Determine its reported pKi: COC1=C(OC)/C(=C/Cn2cnc3c(N)ncnc32)OC1=O
3.50

* * *

test system: HeLa; assay: Concentration required to cause microscopically visible change or disruption in about 50% of cell sheet of HeLa cells; assay type: functional, cell-based, Homo sapiens; conditions: hela
Measured Attribute: pIC50
// pIC50 is dimensionless: -log10 of concentration (M)

Given the compound COC1=C(OC)C(O)(CCn2cnc3c(Cl)ncnc32)OC1=O (stereo in doubt; (-)-4) , write its reported pIC50.
3.88

* * *

The entries below are paired with their reported IC50.
system: P388; test: Anticancer activity carried out in vitro against murine leukemia P388; assay type: functional, cell-based; conditions: Mus musculus

Example entries and their recorded answers appear below.
{"columns": ["Molecule", "IC50"],
 "data": [
  ["COC1=C(OC)C(O)(CCn2cnc3c(Cl)ncnc32)OC1=O (racemic)", "> 120 µM"],
  ["O=C1O/C(=C/Cn2cnc3c(Cl)ncnc32)C(OCc2ccc([N+](=O)[O-])cc2)=C1OCc1ccc([N+](=O)[O-])cc1", "> 120 µM"]
]}

Next, consider the following molecule.
Determine its reported IC50: COC1=C(OC)C(O)(CCn2cnc3c(N)ncnc32)OC1=O (stereo not drawn)
> 120 µM

* * *

pIC50 listing for selected molecules.
tested on: HeLa; assay: Ability to inhibit cytopathogenicity of thymidine kinase-positive(TK+) strain of Varicella zoster virus (YS) in HeLa cell culture; type: functional, cell-based; settings: Homo sapiens
Reminder that pIC50 is minus the log10 of a molar concentration.

{"columns": ["Molecule", "Measured Attribute", "Numeric Result"],
 "data": [
  ["COC1=C(OC)/C(=C/Cn2cnc3c(N)ncnc32)OC1=O", "pIC50", 4.89],
  ["Nc1nc2c(ncn2COCCO)c(=O)[nH]1", "pIC50", 5.06]
]}

Report its pIC50 with HeLa as the test system: COC1=C(OC)/C(=C/C(n2cnc3c(Cl)ncnc32)P(=O)(OC)OC)OC1=O (stereo not drawn)
4.99
